# study.system: Farnesyl protein transferase (FPT) (Rattus norvegicus, UniProt Q02293+Q04631)
# Construct: Farnesyl protein transferase (FPT) was partially purified from rat brain; from tissue; host or cells: rat brain
# Sequence (Q02293 whole entry, one chain of several): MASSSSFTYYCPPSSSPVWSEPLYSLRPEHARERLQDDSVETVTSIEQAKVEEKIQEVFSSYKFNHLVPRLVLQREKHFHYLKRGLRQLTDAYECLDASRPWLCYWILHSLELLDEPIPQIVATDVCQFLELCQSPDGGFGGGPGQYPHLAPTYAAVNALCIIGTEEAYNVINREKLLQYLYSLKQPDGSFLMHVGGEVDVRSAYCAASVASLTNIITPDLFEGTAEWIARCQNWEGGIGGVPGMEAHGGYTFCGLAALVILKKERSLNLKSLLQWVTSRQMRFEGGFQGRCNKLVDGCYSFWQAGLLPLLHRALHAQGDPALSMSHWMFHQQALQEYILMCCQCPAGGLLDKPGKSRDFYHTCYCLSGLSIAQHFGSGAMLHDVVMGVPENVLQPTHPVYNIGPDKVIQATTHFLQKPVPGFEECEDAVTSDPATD
# assay: In vitro enzyme assay: inhibition of farnesyl protein transferase (transfer of [3H]farnesyl from [3H]farnesyl pyrophosphate to Ras-CVLS)
# Assay type: biochemical
# cond: FPT INHIBITION; read-out: FPT IC50
pIC50: −log10 of the molar value.

{"molecule": "CN(C)CCCCC(=O)N1CCC(C2c3ncc(Br)cc3CCc3cc(Cl)cc(Cl)c32)CC1 (single isomer, unassigned)", "study.system": "Farnesyl protein transferase (FPT) (Rattus norvegicus, UniProt Q02293+Q04631)", "value.qualifier": "=", "pIC50": 7.66}
{"molecule": "CCN(CC)CCC(=O)N1CCC(C2c3ncc(Br)cc3CCc3cc(Cl)cc(Cl)c32)CC1 (single isomer, unassigned)", "study.system": "Farnesyl protein transferase (FPT) (Rattus norvegicus, UniProt Q02293+Q04631)", "value.qualifier": "=", "pIC50": 7.85}
{"molecule": "NC(=O)CC(=O)N1CCC([C@H]2c3ncc(Br)cc3CCc3cc(Cl)cc(Br)c32)CC1", "study.system": "Farnesyl protein transferase (FPT) (Rattus norvegicus, UniProt Q02293+Q04631)", "value.qualifier": "=", "pIC50": 7.17}
{"molecule": "NCC(=O)N1CCC(C2c3ncc(Br)cc3CCc3cc(Cl)cc(Cl)c32)CC1 (single isomer, unassigned; (+))", "study.system": "Farnesyl protein transferase (FPT) (Rattus norvegicus, UniProt Q02293+Q04631)", "value.qualifier": "=", "pIC50": 5.96}
{"molecule": "O=C(CCN1CCCCC1)N1CCC(C2c3ncc(Br)cc3CCc3cc(Cl)cc(Cl)c32)CC1 (single isomer, unassigned)", "study.system": "Farnesyl protein transferase (FPT) (Rattus norvegicus, UniProt Q02293+Q04631)", "value.qualifier": "=", "pIC50": 8.22}
{"molecule": "CN(C)CCCC(=O)N1CCC(C2c3ncc(Br)cc3CCc3cc(Cl)cc(Br)c32)CC1 (single isomer, unassigned; (+))", "study.system": "Farnesyl protein transferase (FPT) (Rattus norvegicus, UniProt Q02293+Q04631)", "value.qualifier": "=", "pIC50": 8.40}
{"molecule": "CN(C)CCC(=O)N1CCC(C2c3ncc(Br)cc3CCc3cc(Cl)cc(Cl)c32)CC1 (single isomer, unassigned)", "study.system": "Farnesyl protein transferase (FPT) (Rattus norvegicus, UniProt Q02293+Q04631)", "value.qualifier": "=", "pIC50": 7.25}
{"molecule": "NC(=O)CCC(=O)N1CCC(C2c3ncc(Br)cc3CCc3cc(Cl)cc(Cl)c32)CC1 (single isomer, unassigned)", "study.system": "Farnesyl protein transferase (FPT) (Rattus norvegicus, UniProt Q02293+Q04631)", "value.qualifier": "=", "pIC50": 7.21}
{"molecule": "O=C(NCCCC(=O)N1CCC(C2c3ncc(Br)cc3CCc3cc(Cl)cc(Cl)c32)CC1)Nc1ccccc1 (single isomer, unassigned)", "study.system": "Farnesyl protein transferase (FPT) (Rattus norvegicus, UniProt Q02293+Q04631)", "value.qualifier": "<", "pIC50": 7.00}
{"molecule": "NC(=O)CCCCC(=O)N1CCC([C@H]2c3ncc(Br)cc3CCc3cc(Cl)cc(Br)c32)CC1", "study.system": "Farnesyl protein transferase (FPT) (Rattus norvegicus, UniProt Q02293+Q04631)", "value.qualifier": "=", "pIC50": 8.15}
{"molecule": "COC(=O)CCCCCC(=O)N1CCC([C@H]2c3ncc(Br)cc3CCc3cc(Cl)cc(Br)c32)CC1", "study.system": "Farnesyl protein transferase (FPT) (Rattus norvegicus, UniProt Q02293+Q04631)", "value.qualifier": "=", "pIC50": 7.96}
{"molecule": "NC(=O)NCCCC(=O)N1CCC(C2c3ncc(Br)cc3CCc3cc(Cl)cc(Cl)c32)CC1 (single isomer, unassigned; (+))", "study.system": "Farnesyl protein transferase (FPT) (Rattus norvegicus, UniProt Q02293+Q04631)", "value.qualifier": "=", "pIC50": 7.24}
{"molecule": "O=C(CN1CCCC1=O)N1CCC(C2c3ncc(Br)cc3CCc3cc(Cl)cc(Cl)c32)CC1 (single isomer, unassigned)", "study.system": "Farnesyl protein transferase (FPT) (Rattus norvegicus, UniProt Q02293+Q04631)", "value.qualifier": "=", "pIC50": 7.72}
{"molecule": "O=C(O)CCCCCC(=O)N1CCC([C@H]2c3ncc(Br)cc3CCc3cc(Cl)cc(Br)c32)CC1", "study.system": "Farnesyl protein transferase (FPT) (Rattus norvegicus, UniProt Q02293+Q04631)", "value.qualifier": "=", "pIC50": 8.04}
{"molecule": "CN(C)C(=O)CCC(=O)N1CCC(C2c3ncc(Br)cc3CCc3cc(Cl)cc(Cl)c32)CC1 (single isomer, unassigned)", "study.system": "Farnesyl protein transferase (FPT) (Rattus norvegicus, UniProt Q02293+Q04631)", "value.qualifier": "=", "pIC50": 7.82}
{"molecule": "O=C(CCN1C(=O)CCC1=O)N1CCC(C2c3ncc(Br)cc3CCc3cc(Cl)cc(Cl)c32)CC1 (single isomer, unassigned)", "study.system": "Farnesyl protein transferase (FPT) (Rattus norvegicus, UniProt Q02293+Q04631)", "value.qualifier": "=", "pIC50": 7.12}
{"molecule": "NC(=O)CCC(=O)N1CCC([C@H]2c3ncc(Br)cc3CCc3cc(Cl)cc(Br)c32)CC1", "study.system": "Farnesyl protein transferase (FPT) (Rattus norvegicus, UniProt Q02293+Q04631)", "value.qualifier": "=", "pIC50": 7.85}
{"molecule": "COC(=O)CCCCC(=O)N1CCC([C@H]2c3ncc(Br)cc3CCc3cc(Cl)cc(Br)c32)CC1", "study.system": "Farnesyl protein transferase (FPT) (Rattus norvegicus, UniProt Q02293+Q04631)", "value.qualifier": "=", "pIC50": 7.82}
{"molecule": "COC(=O)CCCC(=O)N1CCC([C@H]2c3ncc(Br)cc3CCc3cc(Cl)cc(Br)c32)CC1", "study.system": "Farnesyl protein transferase (FPT) (Rattus norvegicus, UniProt Q02293+Q04631)", "value.qualifier": "=", "pIC50": 7.72}
{"molecule": "CCOC(=O)CC(=O)N1CCC([C@H]2c3ncc(Br)cc3CCc3cc(Cl)cc(Br)c32)CC1", "study.system": "Farnesyl protein transferase (FPT) (Rattus norvegicus, UniProt Q02293+Q04631)", "value.qualifier": "=", "pIC50": 7.55}
{"molecule": "O=C(CCCCCN1C(=O)C=CC1=O)N1CCC(C2c3ncc(Br)cc3CCc3cc(Cl)cc(Cl)c32)CC1 (single isomer, unassigned)", "study.system": "Farnesyl protein transferase (FPT) (Rattus norvegicus, UniProt Q02293+Q04631)", "value.qualifier": "=", "pIC50": 6.21}
{"molecule": "NCCCC(=O)N1CCC(C2c3ncc(Br)cc3CCc3cc(Cl)cc(Cl)c32)CC1 (single isomer, unassigned; (+))", "study.system": "Farnesyl protein transferase (FPT) (Rattus norvegicus, UniProt Q02293+Q04631)", "value.qualifier": "=", "pIC50": 6.89}
{"molecule": "NC(=O)N1CCC(C2c3ncc(Br)cc3CCc3cc(Cl)cc(Cl)c32)CC1 (single isomer, unassigned; (+)) [Example 1, reference compound]", "study.system": "Farnesyl protein transferase (FPT) (Rattus norvegicus, UniProt Q02293+Q04631)", "value.qualifier": "=", "pIC50": 6.41}
{"molecule": "O=C(CCC(=O)N1CCC(C2c3ncc(Br)cc3CCc3cc(Cl)cc(Cl)c32)CC1)N1CCCC1 (single isomer, unassigned)", "study.system": "Farnesyl protein transferase (FPT) (Rattus norvegicus, UniProt Q02293+Q04631)", "value.qualifier": "=", "pIC50": 7.80}
{"molecule": "CC(C)(C)OC(=O)NCC(=O)N1CCC(C2c3ncc(Br)cc3CCc3cc(Cl)cc(Cl)c32)CC1 (single isomer, unassigned)", "study.system": "Farnesyl protein transferase (FPT) (Rattus norvegicus, UniProt Q02293+Q04631)", "value.qualifier": "=", "pIC50": 6.27}
